Consider the following molecules; for each one, report its viability, T/C.
Tested on: 521955-158-R2-J5-PDC complex spheroid viability
Test: Anticancer human tumor 521955-158-R2-J5-PDC patient-derived pancreatic carcinoma cell line growth inhibition [GQUAD]
Settings: second compound 0.0316 µM; first compound 0.1 µM; active compounds read low
Text: DNA G-quadruplex Stabilizer Agents in Combinations in Complex Spheroids A high-throughput screen of multi-cell type tumor spheroids was designed to identify active combinations of DNA G-quadruplex stabilizer agents and targeted small molecules. […] Compounds. […] If the clinical Cmax for an agent had not been determined, the highest concentration tested was 10 microM. […]
# number only, unit % dropped from output

Request body: readout viability, T/C, system 521955-158-R2-J5-PDC complex spheroid viability, query Nc1ccn(C2OC(CO)C(O)C2(F)F)c(=O)n1 (centres undefined) + CN(C)c1ccc(Nc2c3ccc(NC(=O)CCN4CCCC4)cc3nc3cc(NC(=O)CCN4CCCC4)ccc23)cc1 . Return the value.
73.5

Request body: readout viability, T/C, system 521955-158-R2-J5-PDC complex spheroid viability, query COc1cccc2c1C(=O)c1c(O)c3c(c(O)c1C2=O)CC(O)(C(=O)CO)CC3OC1CC(N)C(O)C(C)O1 (centres undefined) + Cc1cnc(CNC(=O)c2c(=O)c3ccc(N4CCCN(C)CC4)nc3n3c2sc2ccccc23)cn1 . Return the value.
48

Request body: readout viability, T/C, system 521955-158-R2-J5-PDC complex spheroid viability, query O=c1[nH]cc(F)c(=O)[nH]1 + CN(C)c1ccc(Nc2c3ccc(NC(=O)CCN4CCCC4)cc3nc3cc(NC(=O)CCN4CCCC4)ccc23)cc1 . Return the value.
112

Request body: readout viability, T/C, system 521955-158-R2-J5-PDC complex spheroid viability, query CC1COCCN1c1cc(C2(O)CC3CCC(C2)O3)c2cnn(-c3ccn[nH]3)c2n1 (centres undefined) + Cc1cnc(CNC(=O)c2c(=O)c3ccc(N4CCCN(C)CC4)nc3n3c2sc2ccccc23)cn1 . Return the value.
11.8

Request body: readout viability, T/C, system 521955-158-R2-J5-PDC complex spheroid viability, query Cc1cccc(N(C)C(=O)C2C(O)CCN2c2nc(C)cc(C(F)(F)F)c2C#N)c1 (centres undefined) + CN(C)c1ccc(Nc2c3ccc(NC(=O)CCN4CCCC4)cc3nc3cc(NC(=O)CCN4CCCC4)ccc23)cc1 . Return the value.
102

Request body: readout viability, T/C, system 521955-158-R2-J5-PDC complex spheroid viability, query O=C(c1cc(Cc2n[nH]c(=O)c3ccccc23)ccc1F)N1CCN(C(=O)C2CC2)CC1 + CN(C)c1ccc(Nc2c3ccc(NC(=O)CCN4CCCC4)cc3nc3cc(NC(=O)CCN4CCCC4)ccc23)cc1 . Return the value.
85.2

Request body: readout viability, T/C, system 521955-158-R2-J5-PDC complex spheroid viability, query O=C(c1cc(Cc2n[nH]c(=O)c3ccccc23)ccc1F)N1CCN(C(=O)C2CC2)CC1 + Cc1cnc(CNC(=O)c2c(=O)c3ccc(N4CCCN(C)CC4)nc3n3c2sc2ccccc23)cn1 . Return the value.
56

Request body: readout viability, T/C, system 521955-158-R2-J5-PDC complex spheroid viability, query CC(C)(O)C1CCC(Nc2ccc3ncc(-c4cccc(C(F)(F)F)c4)n3n2)CC1 (centres undefined) + Cc1[nH]c2ccc(F)cc2c1-c1nc2c3cccnc3c3ncccc3c2[nH]1 . Return the value.
109

Request body: readout viability, T/C, system 521955-158-R2-J5-PDC complex spheroid viability, query C=CCn1c(=O)c2cnc(Nc3ccc(N4CCN(C)CC4)cc3)nc2n1-c1cccc(C(C)(C)O)n1 + CN(C)c1ccc(Nc2c3ccc(NC(=O)CCN4CCCC4)cc3nc3cc(NC(=O)CCN4CCCC4)ccc23)cc1 . Return the value.
76.5

====

Test system: 521955-158-R2-J5-PDC complex spheroid viability
Assay: Anticancer human tumor 521955-158-R2-J5-PDC cell line growth inhibition [GQUAD];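 also: spheroids exposed to agents for one week before reading; 100% = DMSO vehicle control viability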
Details: second compound 0.1 µM; first compound 1 µM; active compounds read low
Under this convention, true (1) denotes viability, T/C strictly below 30% and false (0) denotes viability, T/C at or above 30%.

Confirm or reject: viability, T/C of CC1COCCN1c1cc(C2(O)CC3CCC(C2)O3)c2cnn(-c3ccn[nH]3)c2n1 (stereo not given) + Cc1[nH]c2ccc(F)cc2c1-c1nc2c3cccnc3c3ncccc3c2[nH]1 lies strictly below 30%
true (1)

Confirm or reject: viability, T/C of O=C(NO)c1cnc(N2CCN(S(=O)(=O)c3ccc4ccccc4c3)CC2)nc1 + CN(C)c1ccc(Nc2c3ccc(NC(=O)CCN4CCCC4)cc3nc3cc(NC(=O)CCN4CCCC4)ccc23)cc1 lies strictly below 30%
true (1)

Confirm or reject: viability, T/C of CC1COCCN1c1cc(C2(O)CC3CCC(C2)O3)c2cnn(-c3ccn[nH]3)c2n1 (stereo not given) + CN(C)c1ccc(Nc2c3ccc(NC(=O)CCN4CCCC4)cc3nc3cc(NC(=O)CCN4CCCC4)ccc23)cc1 lies strictly below 30%
true (1)

Confirm or reject: viability, T/C of O=C(c1cc(Cc2n[nH]c(=O)c3ccccc23)ccc1F)N1CCN(C(=O)C2CC2)CC1 + Cc1[nH]c2ccc(F)cc2c1-c1nc2c3cccnc3c3ncccc3c2[nH]1 lies strictly below 30%
false (0)

====

System: 521955-158-R2-J5-PDC complex spheroid viability
Test: Anticancer human tumor 521955-158-R2-J5-PDC cell line growth inhibition [GQUAD];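 also: spheroids exposed to agents for one week before reading; 100% = DMSO vehicle control viability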
Settings: second compound 1 µM; first compound 0.316 µM; active compounds read low
metric_name: viability, T/C (%)
# number only, unit % dropped from output

Request body: readout viability, T/C, system 521955-158-R2-J5-PDC complex spheroid viability, query COc1ncnc(C2CC2)c1-c1ncc2cnn(Cc3ccc(-c4nc(C(F)(F)F)cn4C(C)C)cc3)c2n1 + Cc1[nH]c2ccc(F)cc2c1-c1nc2c3cccnc3c3ncccc3c2[nH]1 . Return the value.
102

Request body: readout viability, T/C, system 521955-158-R2-J5-PDC complex spheroid viability, query COc1cccc2c1C(=O)c1c(O)c3c(c(O)c1C2=O)CC(O)(C(=O)CO)CC3OC1CC(N)C(O)C(C)O1 (stereo not given) + Cc1[nH]c2ccc(F)cc2c1-c1nc2c3cccnc3c3ncccc3c2[nH]1 . Return the value.
25.4

Request body: readout viability, T/C, system 521955-158-R2-J5-PDC complex spheroid viability, query CCCS(=O)(=O)Nc1ccc(F)c(C(=O)c2c[nH]c3ncc(-c4ccc(Cl)cc4)cc23)c1F + Cc1[nH]c2ccc(F)cc2c1-c1nc2c3cccnc3c3ncccc3c2[nH]1 . Return the value.
78.1

Request body: readout viability, T/C, system 521955-158-R2-J5-PDC complex spheroid viability, query Cn1ncnc1[C@H]1c2n[nH]c(=O)c3cc(F)cc(c23)N[C@@H]1c1ccc(F)cc1 + Cc1cnc(CNC(=O)c2c(=O)c3ccc(N4CCCN(C)CC4)nc3n3c2sc2ccccc23)cn1 . Return the value.
16.6

Request body: readout viability, T/C, system 521955-158-R2-J5-PDC complex spheroid viability, query CC(=O)O[C@H]1C(=O)[C@@]2(C)[C@H]([C@H](OC(=O)c3ccccc3)[C@]3(O)C[C@H](OC(=O)[C@H](O)[C@@H](NC(=O)c4ccccc4)c4ccccc4)C(C)=C1C3(C)C)[C@]1(OC(C)=O)CO[C@@H]1C[C@@H]2O + Cc1[nH]c2ccc(F)cc2c1-c1nc2c3cccnc3c3ncccc3c2[nH]1 . Return the value.
43.4

Request body: readout viability, T/C, system 521955-158-R2-J5-PDC complex spheroid viability, query CC1COCCN1c1cc(C2(S(C)(=N)=O)CC2)nc(-c2ccnc3[nH]ccc23)n1 (stereo not given) + CN(C)c1ccc(Nc2c3ccc(NC(=O)CCN4CCCC4)cc3nc3cc(NC(=O)CCN4CCCC4)ccc23)cc1 . Return the value.
91.5

Request body: readout viability, T/C, system 521955-158-R2-J5-PDC complex spheroid viability, query CC1COCCN1c1cc(-c2ccnn2C)c2ccnc(-c3ccn[nH]3)c2n1 (stereo not given) + Cc1[nH]c2ccc(F)cc2c1-c1nc2c3cccnc3c3ncccc3c2[nH]1 . Return the value.
9.88

Request body: readout viability, T/C, system 521955-158-R2-J5-PDC complex spheroid viability, query CC1COCCN1c1cc(C2(O)CC3CCC(C2)O3)c2cnn(-c3ccn[nH]3)c2n1 (stereo not given) + Cc1[nH]c2ccc(F)cc2c1-c1nc2c3cccnc3c3ncccc3c2[nH]1 . Return the value.
12.4

Request body: readout viability, T/C, system 521955-158-R2-J5-PDC complex spheroid viability, query CCc1c2c(nc3ccc(O)cc13)-c1cc3c(c(=O)n1C2)COC(=O)[C@]3(O)CC + Cc1cnc(CNC(=O)c2c(=O)c3ccc(N4CCCN(C)CC4)nc3n3c2sc2ccccc23)cn1 . Return the value.
0.1

Request body: readout viability, T/C, system 521955-158-R2-J5-PDC complex spheroid viability, query C=CC(=O)N1CCN(c2nc(=O)n(-c3c(C)ccnc3C(C)C)c3nc(-c4c(O)cccc4F)c(F)cc23)C(C)C1 (stereo not given) + Cc1cnc(CNC(=O)c2c(=O)c3ccc(N4CCCN(C)CC4)nc3n3c2sc2ccccc23)cn1 . Return the value.
19.7

Request body: readout viability, T/C, system 521955-158-R2-J5-PDC complex spheroid viability, query O=C(c1cc(Cc2n[nH]c(=O)c3ccccc23)ccc1F)N1CCN(C(=O)C2CC2)CC1 + Cc1[nH]c2ccc(F)cc2c1-c1nc2c3cccnc3c3ncccc3c2[nH]1 . Return the value.
99.4

Request body: readout viability, T/C, system 521955-158-R2-J5-PDC complex spheroid viability, query CC[C@@]1(O)C(=O)OCc2c1cc1n(c2=O)Cc2cc3c(CN(C)C)c(O)ccc3nc2-1 + Cc1cnc(CNC(=O)c2c(=O)c3ccc(N4CCCN(C)CC4)nc3n3c2sc2ccccc23)cn1 . Return the value.
11.2

Request body: readout viability, T/C, system 521955-158-R2-J5-PDC complex spheroid viability, query COc1cccc2c1C(=O)c1c(O)c3c(c(O)c1C2=O)CC(O)(C(=O)CO)CC3OC1CC(N)C(O)C(C)O1 (stereo not given) + Cc1cnc(CNC(=O)c2c(=O)c3ccc(N4CCCN(C)CC4)nc3n3c2sc2ccccc23)cn1 . Return the value.
14.5

Request body: readout viability, T/C, system 521955-158-R2-J5-PDC complex spheroid viability, query CC(=O)O[C@H]1C(=O)[C@@]2(C)[C@H]([C@H](OC(=O)c3ccccc3)[C@]3(O)C[C@H](OC(=O)[C@H](O)[C@@H](NC(=O)c4ccccc4)c4ccccc4)C(C)=C1C3(C)C)[C@]1(OC(C)=O)CO[C@@H]1C[C@@H]2O + Cc1cnc(CNC(=O)c2c(=O)c3ccc(N4CCCN(C)CC4)nc3n3c2sc2ccccc23)cn1 . Return the value.
8.58

Request body: readout viability, T/C, system 521955-158-R2-J5-PDC complex spheroid viability, query O=C(NO)c1cnc(N2CCN(S(=O)(=O)c3ccc4ccccc4c3)CC2)nc1 + Cc1[nH]c2ccc(F)cc2c1-c1nc2c3cccnc3c3ncccc3c2[nH]1 . Return the value.
120

Request body: readout viability, T/C, system 521955-158-R2-J5-PDC complex spheroid viability, query C=CCn1c(=O)c2cnc(Nc3ccc(N4CCN(C)CC4)cc3)nc2n1-c1cccc(C(C)(C)O)n1 + Cc1[nH]c2ccc(F)cc2c1-c1nc2c3cccnc3c3ncccc3c2[nH]1 . Return the value.
23.4

Request body: readout viability, T/C, system 521955-158-R2-J5-PDC complex spheroid viability, query Nc1ccn(C2OC(CO)C(O)C2(F)F)c(=O)n1 (stereo not given) + Cc1cnc(CNC(=O)c2c(=O)c3ccc(N4CCCN(C)CC4)nc3n3c2sc2ccccc23)cn1 . Return the value.
15.2

Request body: readout viability, T/C, system 521955-158-R2-J5-PDC complex spheroid viability, query Cc1[nH]c2ccccc2c1CCNCc1ccc(/C=C/C(=O)NO)cc1 + Cc1cnc(CNC(=O)c2c(=O)c3ccc(N4CCCN(C)CC4)nc3n3c2sc2ccccc23)cn1 . Return the value.
0.1

Request body: readout viability, T/C, system 521955-158-R2-J5-PDC complex spheroid viability, query COc1cc(C2c3cc4c(cc3C(OC3OC5COC(C)OC5C(O)C3O)C3COC(=O)C23)OCO4)cc(OC)c1O (stereo not given) + Cc1[nH]c2ccc(F)cc2c1-c1nc2c3cccnc3c3ncccc3c2[nH]1 . Return the value.
82.2

Request body: readout viability, T/C, system 521955-158-R2-J5-PDC complex spheroid viability, query C=CCn1c(=O)c2cnc(Nc3ccc(N4CCN(C)CC4)cc3)nc2n1-c1cccc(C(C)(C)O)n1 + Cc1cnc(CNC(=O)c2c(=O)c3ccc(N4CCCN(C)CC4)nc3n3c2sc2ccccc23)cn1 . Return the value.
21.1
